- Species on record: Rattus norvegicus
- procedureDetails: Open TG-GATES - Regimen: Daily Repeat
- Format: toxicity, organism-based, Sprague-Dawley
- Set-up: regimen Daily Repeat, gender Male, age 6 weeks
- experimentalContext: in vivo, po, 0 mg/kg, 72 h, tissue Blood, route gavage, dose level Control, time 3 day
readout: WBC (x10_2/uL)
State just the number; it will be interpreted in x10_2/uL.

>>> obsvalue("CCN1CCCC1CNC(=O)c1cc(S(N)(=O)=O)ccc1OC (stereo not given) [SULPIRIDE]")
82.7
>>> obsvalue("CC(C)C(=O)Nc1ccc([N+](=O)[O-])c(C(F)(F)F)c1 [FLUTAMIDE]")
82.7
>>> obsvalue("O=C(N[C@H](CO)[C@H](O)c1ccc([N+](=O)[O-])cc1)C(Cl)Cl [CHLORAMPHENICOL]")
78.3
>>> obsvalue("Nc1nc(N)c2nc(-c3ccccc3)c(N)nc2n1")
102.2

With those in mind, consider the next compound.
Per the records, this compound ( CCC(C)(C)C(=O)O[C@H]1C[C@@H](C)C=C2C=C[C@H](C)[C@H](CC[C@@H]3C[C@@H](O)CC(=O)O3)[C@H]21 [SIMVASTATIN] ) has WBC equal to 98.2

FYI, the data here is from ChEMBL document CHEMBL3885861.
